System: Lindernia pyxidaria
assay_text: Test Example 12: herbicidal effect test by treatment during growing period in paddy field
Format: in vivo
condition_context: 120 g/10a; treatment seven days after sowing in flooded paddy pot; assessed 14 days after treatment
Overview of reported Weed suppression rate (%) Lindemia pyxidaria across a group of compounds:
Your answer is read as %, so omit the unit and give the number.

These recorded examples may help you get a feel for the data.
INSERT INTO measurements (compound, measurement_units, readout_number) VALUES
  ('CC(C)N(C(=O)n1cnn(S(=O)(=O)C2CCCCC2)c1=O)c1ccc(Cl)cc1Br [Compound 11-306]', '%', 70),
  ('CC(C)N(C(=O)n1cnn(S(=O)(=O)N(C)C)c1=O)c1c(F)c(F)cc(F)c1F [Compound 11-1069]', '%', 70),
  ('CC(C)N(C(=O)n1cnn(S(C)(=O)=O)c1=O)c1c(F)c(F)cc(F)c1F [Compound 11-17]', '%', 70),
  ('CN(C(=O)n1cnn(S(=O)(=O)C2CCCCC2)c1=O)c1ccc(F)cc1F [Compound 11-1129]', '%', 70),
  ('Cc1ccc(N(C(=O)n2cnn(S(=O)(=O)C3CCCCC3)c2=O)C(C)C)c(F)c1 [Compound 11-308]', '%', 80),
  ('CC(C)N(C(=O)n1cnn(S(=O)(=O)c2ccccc2Cl)c1=O)c1ccccc1 [Compound 11-501]', '%', 80);

// returns reported Weed suppression rate (%) Lindemia pyxidaria for input CC(C)N(C(=O)n1cnn(S(=O)(=O)C2CCCCC2)c1=O)c1ccc(F)c(F)c1F [Compound 11-297]
70

Need Weed suppression rate (%) Lindemia pyxidaria, item CC(C)N(C(=O)n1cnn(S(=O)(=O)C2CCCCC2)c1=O)c1ccc(Br)cc1Cl [Compound 11-305]
90

----------
Test system: Echinochloa crus-galli
assay_text: Test Example 11: herbicidal effect test by soil treatment in paddy field
Type: in vivo
condition_context: 120 g/10a active ingredient, 14 days after treatment
measure_name: Weed suppression rate (%) Echinochloa crus-galli
// note: answer is a bare numeric in %

Example cases with answers are listed next.
INSERT INTO measurements (mol, readout_number) VALUES
  ('CC(C)N(C(=O)n1cnn(S(=O)(=O)N(C)C)c1=O)c1ccccc1F', 90),
  ('CC(C)N(C(=O)n1cnn(S(=O)(=O)c2cccs2)c1=O)c1ccc(F)cc1', 90),
  ('CC(C)N(C(=O)n1cnn(S(=O)(=O)c2ccccc2F)c1=O)c1c(F)cccc1F', 100);

If you can, please state the reported Weed suppression rate (%) Echinochloa crus-galli value of CC(C)N(C(=O)n1cnn(S(=O)(=O)C2CC2)c1=O)c1ccc(Cl)cc1F .
100

Name the recorded Weed suppression rate (%) Echinochloa crus-galli for Cc1cc(C)c(S(=O)(=O)n2ncn(C(=O)N(c3ccc(Cl)cc3C)C(C)C)c2=O)c(C)c1 .
90

Which measured Weed suppression rate (%) Echinochloa crus-galli value corresponds to CC(C)N(C(=O)n1cnn(S(=O)(=O)c2cccc(Cl)c2)c1=O)c1c(F)cc(F)cc1F ?
100

Any idea what its Weed suppression rate (%) Echinochloa crus-galli is? The compound is CC(C)N(C(=O)n1cnn(S(=O)(=O)c2ccc(Cl)cc2)c1=O)c1ccc(F)cc1Cl
90

Can you share its Weed suppression rate (%) Echinochloa crus-galli? I mean this compound: CC(C)N(C(=O)n1cnn(S(=O)(=O)C(C)C)c1=O)c1ccc(Cl)cc1F
100

Reported Weed suppression rate (%) Echinochloa crus-galli, compound CCS(=O)(=O)n1ncn(C(=O)N(c2ccc(F)c(F)c2F)C(C)C)c1=O : ____
100

Give its Weed suppression rate (%) Echinochloa crus-galli value. Item: COc1ccc(S(=O)(=O)n2ncn(C(=O)N(c3ccc(F)c(F)c3F)C(C)C)c2=O)cc1
100

Query (compound): CC(C)N(C(=O)n1cnn(S(C)(=O)=O)c1=O)c1c(F)cc(F)cc1F ; field requested: Weed suppression rate (%) Echinochloa crus-galli
100

Return reported Weed suppression rate (%) Echinochloa crus-galli; argument: Cc1cc(F)ccc1N(C(=O)n1cnn(S(=O)(=O)C2CCCCC2)c1=O)C(C)C
80

Report Weed suppression rate (%) Echinochloa crus-galli for CC(C)N(C(=O)n1cnn(S(=O)(=O)c2ccc(C(C)(C)C)cc2)c1=O)c1ccc(C(F)(F)F)cc1F please.
90

Report Weed suppression rate (%) Echinochloa crus-galli for Cc1cc(C)c(S(=O)(=O)n2ncn(C(=O)N(c3ccc(Cl)cn3)C(C)C)c2=O)c(C)c1 please.
100

Please report the recorded Weed suppression rate (%) Echinochloa crus-galli for Cc1cc(C)c(S(=O)(=O)n2ncn(C(=O)N(c3c(F)c(F)cc(F)c3F)C(C)C)c2=O)c(C)c1 .
100

So what's the measured Weed suppression rate (%) Echinochloa crus-galli for this one? CC(C)N(C(=O)n1cnn(S(=O)(=O)C2CC2)c1=O)c1ccc(C(F)(F)F)cc1Cl
100

So what's the measured Weed suppression rate (%) Echinochloa crus-galli for this one? CC(C)CN(C)S(=O)(=O)n1ncn(C(=O)N(c2ccc(F)cc2F)C(C)C)c1=O
90

Bench note: what Weed suppression rate (%) Echinochloa crus-galli did CC(C)N(C(=O)n1cnn(S(=O)(=O)C(C)C)c1=O)c1ccccc1F show?
90

# query: Weed suppression rate (%) Echinochloa crus-galli of entry CC(C)N(C(=O)n1cnn(S(C)(=O)=O)c1=O)c1ccc(Cl)cc1F
70

Returns the measured Weed suppression rate (%) Echinochloa crus-galli for the input compound. Input: Cc1cc(C)c(S(=O)(=O)n2ncn(C(=O)N(c3ccc(C(F)(F)F)cc3F)C(C)C)c2=O)c(C)c1
80

Weed suppression rate (%) Echinochloa crus-galli for CC(C)N(C(=O)n1cnn(S(=O)(=O)c2ccccc2Cl)c1=O)c1ccc(F)c(F)c1F ?
100

Which measured Weed suppression rate (%) Echinochloa crus-galli value corresponds to CC(C)N(C(=O)n1cnn(S(=O)(=O)c2cccnc2)c1=O)c1ccc(F)cc1F ?
90

----------
# weed suppression rate, Scirpus juncoides per entry
System: Scirpus juncoides
assay_text: Test Example 2: herbicidal effect test by treatment during growing period in paddy field
Format: in vivo
condition_context: treatment 7 days after sowing, 120 g/10a, evaluated 14 days after treatment
Provide only the numeric value, understood in %.

Study these solved cases before continuing.
INSERT INTO assay_data (compound, readout_number) VALUES
  ('CC(C)N(C(=O)n1ncn(S(=O)(=O)C(C)C)c1=O)c1ccccc1F', 90),
  ('Cc1ccc(N(C(=O)n2ncn(S(=O)(=O)C(C)C)c2=O)C(C)C)c(F)c1', 90),
  ('CC(C)N(C(=O)n1ncn(S(=O)(=O)C2CCCCC2)c1=O)c1c(F)c(F)cc(F)c1F', 90);

Would you kindly share the measured weed suppression rate, Scirpus juncoides for CC(C)N(C(=O)n1ncn(S(=O)(=O)C2CC2)c1=O)c1c(F)cc(F)cc1F ?
100

Which weed suppression rate, Scirpus juncoides reading was recorded for the compound Cc1ccc(N(C(=O)n2ncn(S(=O)(=O)C3CC3)c2=O)C(C)C)c(Cl)c1 ?
90

Can you share its weed suppression rate, Scirpus juncoides? I mean this compound: CC(C)N(C(=O)n1ncn(S(=O)(=O)C2CCCCC2)c1=O)c1ccc(Cl)cc1F
100

Recorded weed suppression rate, Scirpus juncoides of CC(C)N(C(=O)n1ncn(S(=O)(=O)N(C)C)c1=O)c1ccc(F)cc1 , please.
90

Find the recorded weed suppression rate, Scirpus juncoides belonging to CC(C)N(C(=O)n1ncn(S(=O)(=O)C2CC2)c1=O)c1ccc(Br)cc1Cl and report it.
100

Entry under review: Cc1ccc(N(C(=O)n2ncn(S(=O)(=O)C3CCCCC3)c2=O)C(C)C)c(F)c1 . Reported weed suppression rate, Scirpus juncoides?
90

I'd like to know its weed suppression rate, Scirpus juncoides. The compound in question is CC(C)N(C(=O)n1ncn(S(=O)(=O)C(C)C)c1=O)c1ccc(F)nc1
90

Param item = CC(C)N(C(=O)n1ncn(S(=O)(=O)C2CCCC2)c1=O)c1ccc(F)cc1F ; retrieve measured weed suppression rate, Scirpus juncoides.
90

Given the entry CC(C)N(C(=O)n1ncn(S(=O)(=O)C2CC2)c1=O)c1ccc(C(F)(F)F)cc1F , report its measured weed suppression rate, Scirpus juncoides.
90

What does the record list as weed suppression rate, Scirpus juncoides for CC(C)N(C(=O)n1ncn(S(=O)(=O)C(C)C)c1=O)c1cccnc1F [Compound 1-90] ?
90

Name the recorded weed suppression rate, Scirpus juncoides for Cc1cc(N(C(=O)n2ncn(S(=O)(=O)C3CC3)c2=O)C(C)C)no1 .
80

----------
Listed here: items and their measured Weed suppression rate (%) Echinochloa crus-galli.
Test system: Echinochloa crus-galli
assay_text: Test Example 11: herbicidal effect test by soil treatment in paddy field
Type: in vivo
condition_context: 120 g/10a active ingredient, 14 days after treatment
# value in %; strip the unit string

The examples below pair each entry with its known result.
INSERT INTO results (compound, readout_number) VALUES
  ('CC(C)N(C(=O)n1cnn(S(=O)(=O)c2c(F)c(F)c(F)c(F)c2F)c1=O)c1ccccc1', 90),
  ('Cc1cc(F)ccc1N(C(=O)n1cnn(S(C)(=O)=O)c1=O)C(C)C', 90),
  ('CCN(C)S(=O)(=O)n1ncn(C(=O)N(c2ccc(F)cc2F)C(C)C)c1=O', 100),
  ('CC(C)CS(=O)(=O)n1ncn(C(=O)N(c2ccc(F)cc2F)C(C)C)c1=O', 100),
  ('CCC(C)S(=O)(=O)n1ncn(C(=O)N(c2ccc(F)cc2F)C(C)C)c1=O (centres unmarked)', 90);

Using the record for CC(C)N(C(=O)n1cnn(S(=O)(=O)C2CCCCC2)c1=O)c1ccc(F)c(F)c1F , report its Weed suppression rate (%) Echinochloa crus-galli.
100

Report Weed suppression rate (%) Echinochloa crus-galli for CC(C)N(C(=O)n1cnn(S(=O)(=O)c2cccc(C(F)(F)F)c2)c1=O)c1ccc(Cl)cc1Br please.
100

# get_value(readout='Weed suppression rate (%) Echinochloa crus-galli', item= CC(C)N(C(=O)n1cnn(S(=O)(=O)c2ccccc2C(F)(F)F)c1=O)c1ccc(F)cc1F )
90
